molecular target: Estrogen receptor (Mus musculus) (UniProt O08537+P19785); assay: Anti-uterotrophic effect in mice as uterine weight(mg) relative to body weight(g) at 2 ug dose; assay type: functional
Sequence (O08537 whole entry, looked up): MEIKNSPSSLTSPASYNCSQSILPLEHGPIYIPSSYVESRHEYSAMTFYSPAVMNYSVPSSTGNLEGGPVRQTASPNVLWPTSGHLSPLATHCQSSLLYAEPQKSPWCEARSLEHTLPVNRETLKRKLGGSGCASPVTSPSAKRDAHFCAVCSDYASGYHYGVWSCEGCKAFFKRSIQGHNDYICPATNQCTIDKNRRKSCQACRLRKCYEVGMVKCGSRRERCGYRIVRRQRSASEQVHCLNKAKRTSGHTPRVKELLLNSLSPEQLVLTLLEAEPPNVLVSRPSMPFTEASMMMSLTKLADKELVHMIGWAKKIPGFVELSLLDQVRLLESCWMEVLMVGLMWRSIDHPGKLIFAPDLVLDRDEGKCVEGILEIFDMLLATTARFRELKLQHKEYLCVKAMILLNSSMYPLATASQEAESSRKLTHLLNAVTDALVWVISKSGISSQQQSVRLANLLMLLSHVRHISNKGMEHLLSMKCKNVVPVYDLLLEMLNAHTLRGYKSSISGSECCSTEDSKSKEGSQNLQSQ
Sequence (P19785 whole entry, looked up): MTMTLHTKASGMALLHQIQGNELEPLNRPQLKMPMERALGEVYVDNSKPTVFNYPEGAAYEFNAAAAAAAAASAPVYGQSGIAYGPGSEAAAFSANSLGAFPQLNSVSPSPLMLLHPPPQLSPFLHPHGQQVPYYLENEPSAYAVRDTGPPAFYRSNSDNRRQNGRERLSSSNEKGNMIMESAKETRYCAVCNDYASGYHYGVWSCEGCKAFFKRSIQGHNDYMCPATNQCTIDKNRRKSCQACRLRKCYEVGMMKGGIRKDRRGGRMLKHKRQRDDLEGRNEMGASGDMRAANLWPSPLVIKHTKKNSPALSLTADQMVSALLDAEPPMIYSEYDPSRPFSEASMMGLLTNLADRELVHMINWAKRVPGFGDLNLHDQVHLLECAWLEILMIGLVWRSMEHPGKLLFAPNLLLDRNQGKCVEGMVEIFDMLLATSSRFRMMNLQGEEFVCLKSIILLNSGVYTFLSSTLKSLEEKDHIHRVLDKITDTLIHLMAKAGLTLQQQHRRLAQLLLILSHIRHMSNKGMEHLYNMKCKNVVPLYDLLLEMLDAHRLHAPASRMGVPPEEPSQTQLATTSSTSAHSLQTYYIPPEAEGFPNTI
Items are presented alongside their recorded Relative uterus weight.
API note: the answer field is a bare number with no unit suffix.

In the examples that follow, each entry is paired with its recorded Relative uterus weight.
molecule="CCCC1Cc2cc(OC(C)=O)ccc2-c2c(C=O)c3ccc(OC(C)=O)cc3n21 (stereo not given)" recorded_measurement=39.4
molecule="CCCCCC1Cc2cc(OC(C)=O)ccc2-c2c(C=O)c3cc(OC(C)=O)ccc3n21 (stereo not given)" recorded_measurement=57.3
molecule="CCCCC1Cc2cc(OC(C)=O)ccc2-c2c(C=O)c3cc(OC(C)=O)ccc3n21 (stereo not given)" recorded_measurement=46.7
molecule="CCCCC1Cc2cc(OC(C)=O)ccc2-c2c(C=O)c3ccc(OC(C)=O)cc3n21 (stereo not given)" recorded_measurement=52.8
molecule="CCCC1Cc2cc(OC(C)=O)ccc2-c2c(C=O)c3cc(OC(C)=O)ccc3n21 (stereo not given)" recorded_measurement=38.8
molecule="CCC1Cc2cc(OC(C)=O)ccc2-c2c(C=O)c3cc(OC(C)=O)ccc3n21 (stereo not given)" recorded_measurement=45.3
molecule="CC(=O)Oc1ccc2c(c1)CC(C)n1c-2c(C=O)c2cc(OC(C)=O)ccc21 (stereo not given)" recorded_measurement=60.5
molecule="CCCCCC1Cc2cc(OC(C)=O)ccc2-c2c(C=O)c3ccc(OC(C)=O)cc3n21 (stereo not given)" recorded_measurement=49
molecule="CC(=O)Oc1ccc2c(c1)CC(C)n1c-2c(C=O)c2ccc(OC(C)=O)cc21 (stereo not given)" recorded_measurement=45.3

Moving on to another molecule below.
Input line: Complete the entry with Relative uterus weight for CCC1Cc2cc(OC(C)=O)ccc2-c2c(C=O)c3ccc(OC(C)=O)cc3n21 (stereo not given)
Output line: 47.9

----------
molecular target: Estrogen receptor (Mus musculus) (UniProt O08537+P19785); experiment: Uterotrophic effect in mice as uterine weight(mg) relative to body weight(g) at 250 ug dose; assay type: functional, tissue-based
# class assignment by measured Relative uterus weight: low (below 20), intermediate (20 to below 30), high (30 or more)

compound="CCC1Cc2cc(OC(C)=O)ccc2-c2c(C=O)c3cc(OC(C)=O)ccc3n21 (stereo not given)" class_name=high
compound="CCCC1Cc2cc(OC(C)=O)ccc2-c2c(C=O)c3cc(OC(C)=O)ccc3n21 (stereo not given)" class_name=high
compound="CCCC1Cc2cc(OC(C)=O)ccc2-c2c(C=O)c3ccc(OC(C)=O)cc3n21 (stereo not given)" class_name=low
compound="CCC1Cc2cc(OC(C)=O)ccc2-c2c(C=O)c3ccc(OC(C)=O)cc3n21 (stereo not given)" class_name=intermediate
compound="CCCCC1Cc2cc(OC(C)=O)ccc2-c2c(C=O)c3ccc(OC(C)=O)cc3n21 (stereo not given)" class_name=low
compound="CC(=O)Oc1ccc2c(c1)CC(C)n1c-2c(C=O)c2cc(OC(C)=O)ccc21 (stereo not given)" class_name=high
compound="CCCCC1Cc2cc(OC(C)=O)ccc2-c2c(C=O)c3cc(OC(C)=O)ccc3n21 (stereo not given)" class_name=intermediate

Input line: Into which bin does this compound go? CCCCCC1Cc2cc(OC(C)=O)ccc2-c2c(C=O)c3cc(OC(C)=O)ccc3n21 (stereo not given)
Output line: intermediate
